Target: neuraminidase from recombinant H3N2 influenza A virus (Influenza A virus)
Sequence (P03482 whole entry): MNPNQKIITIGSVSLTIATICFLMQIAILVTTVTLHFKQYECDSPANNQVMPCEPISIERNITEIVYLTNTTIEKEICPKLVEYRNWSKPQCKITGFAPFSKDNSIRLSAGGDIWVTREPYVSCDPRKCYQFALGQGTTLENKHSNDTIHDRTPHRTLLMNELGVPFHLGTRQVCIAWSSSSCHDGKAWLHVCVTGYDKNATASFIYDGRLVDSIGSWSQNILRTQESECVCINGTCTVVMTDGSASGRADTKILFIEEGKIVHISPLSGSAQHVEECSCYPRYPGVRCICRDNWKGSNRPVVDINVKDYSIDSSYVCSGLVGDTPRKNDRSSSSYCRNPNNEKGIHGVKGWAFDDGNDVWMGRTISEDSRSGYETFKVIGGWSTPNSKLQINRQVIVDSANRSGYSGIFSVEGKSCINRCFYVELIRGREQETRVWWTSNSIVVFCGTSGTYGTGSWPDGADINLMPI
Assay: biochemical
Details: IC50 H3N2 neuraminidase

# structureNotation, IC50
rows = [
    ("C/C=C/C1=CC2=C(CO1)C(=O)[C@](C)(O)[C@H](OC(=O)c1c(C)cc(O)cc1O)C2", "30.9 µM"),
]

---

Target: neuraminidase from recombinant H5N1 influenza A virus (Influenza A virus, UniProt Q6DPL2)
Sequence (Q6DPL2 whole entry, looked up): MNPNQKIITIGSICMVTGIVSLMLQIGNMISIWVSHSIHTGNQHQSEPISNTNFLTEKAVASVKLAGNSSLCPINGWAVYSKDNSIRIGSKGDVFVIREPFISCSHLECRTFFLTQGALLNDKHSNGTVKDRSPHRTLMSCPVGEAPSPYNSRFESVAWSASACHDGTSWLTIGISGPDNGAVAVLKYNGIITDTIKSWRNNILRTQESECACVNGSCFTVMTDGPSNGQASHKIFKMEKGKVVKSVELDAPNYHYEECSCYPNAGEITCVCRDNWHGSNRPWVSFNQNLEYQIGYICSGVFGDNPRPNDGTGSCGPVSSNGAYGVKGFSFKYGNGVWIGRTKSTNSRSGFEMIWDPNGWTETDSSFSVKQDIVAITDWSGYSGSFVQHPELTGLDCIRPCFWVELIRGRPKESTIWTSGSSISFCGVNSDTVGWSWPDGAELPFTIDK
Test: biochemical
quantityMeasured: IC50

# structureNotation, result
measured = [
    ("C/C=C/C1=CC2=C(CO1)C(=O)[C@](C)(O)[C@H](OC(=O)c1c(C)cc(O)cc1O)C2", "35.7 µM"),
]
